Task for the reader: assign each of the following compounds its reported AUC25.
Test system: Mycobacterium tuberculosis Erdman (autoluminescent)
assayComment: AUC25, normalised area under dose response up to IC25 (three-drug combination) (fraction (0-1)); higher = more potent at low dose
measurementSetup: in vitro model: cholesterol 0.05 mM; time point: terminal (~4-5 doublings, model-specific)
Numbers only.

Could you tell me AUC25 for each of these compounds? They are listed below.
1. CC[C@@H](CO)NCCN[C@@H](CC)CO [ethambutol] + O=[N+]([O-])c1cn2c(n1)OC[C@@H](OCc1ccc(OC(F)(F)F)cc1)C2 [pretomanid] + CO[C@H]1/C=C/O[C@@]2(C)Oc3c(C)c(O)c4c(O)c(c(/C=N/N5CCN(C6CCCC6)CC5)c(O)c4c3C2=O)NC(=O)/C(C)=C\C=C\[C@H](C)[C@H](O)[C@@H](C)[C@@H](O)[C@@H](C)[C@H](OC(C)=O)[C@@H]1C [rifapentine]
2. CC(C)/N=c1\cc2n(-c3ccc(Cl)cc3)c3ccccc3nc-2cc1Nc1ccc(Cl)cc1 [clofazimine] + NNC(=O)c1ccncc1 [isoniazid] + O=[N+]([O-])c1cn2c(n1)OC[C@@H](OCc1ccc(OC(F)(F)F)cc1)C2 [pretomanid]

[0.0797, 0.0944]

Could you tell me AUC25 for each of these compounds? They are listed below.
1. CC[C@@H](CO)NCCN[C@@H](CC)CO [ethambutol] + COc1c(N2C[C@@H]3CCCN[C@@H]3C2)c(F)cc2c(=O)c(C(=O)O)cn(C3CC3)c12 [moxifloxacin] + O=[N+]([O-])c1cn2c(n1)OC[C@@H](OCc1ccc(OC(F)(F)F)cc1)C2 [pretomanid]
2. CC[C@@H](CO)NCCN[C@@H](CC)CO [ethambutol] + CC(=O)NC[C@H]1CN(c2ccc(N3CCOCC3)c(F)c2)C(=O)O1 [linezolid] + CO[C@H]1/C=C/O[C@@]2(C)Oc3c(C)c(O)c4c(O)c(c(/C=N/N5CCN(C6CCCC6)CC5)c(O)c4c3C2=O)NC(=O)/C(C)=C\C=C\[C@H](C)[C@H](O)[C@@H](C)[C@@H](O)[C@@H](C)[C@H](OC(C)=O)[C@@H]1C [rifapentine]
3. COc1nc2ccc(Br)cc2cc1[C@@H](c1ccccc1)[C@@](O)(CCN(C)C)c1cccc2ccccc12 [bedaquiline] + CC[C@@H](CO)NCCN[C@@H](CC)CO [ethambutol] + NC(=O)c1cnccn1 [pyrazinamide]
4. CC(=O)NC[C@H]1CN(c2ccc(N3CCOCC3)c(F)c2)C(=O)O1 [linezolid] + O=[N+]([O-])c1cn2c(n1)OC[C@@H](OCc1ccc(OC(F)(F)F)cc1)C2 [pretomanid] + NC(=O)c1cnccn1 [pyrazinamide]

0.116
0.154
0.113
0.145

Could you tell me AUC25 for each of these compounds? They are listed below.
1. O=[N+]([O-])c1cn2c(n1)OC[C@@H](OCc1ccc(OC(F)(F)F)cc1)C2 [pretomanid] + NC(=O)c1cnccn1 [pyrazinamide] + CO[C@H]1/C=C/O[C@@]2(C)Oc3c(C)c(O)c4c(O)c(c(/C=N/N5CCN(C)CC5)c(O)c4c3C2=O)NC(=O)/C(C)=C\C=C\[C@H](C)[C@H](O)[C@@H](C)[C@@H](O)[C@@H](C)[C@H](OC(C)=O)[C@@H]1C
2. NNC(=O)c1ccncc1 [isoniazid] + CC(=O)NC[C@H]1CN(c2ccc(N3CCOCC3)c(F)c2)C(=O)O1 [linezolid] + CO[C@H]1/C=C/O[C@@]2(C)Oc3c(C)c(O)c4c(O)c(c(/C=N/N5CCN(C6CCCC6)CC5)c(O)c4c3C2=O)NC(=O)/C(C)=C\C=C\[C@H](C)[C@H](O)[C@@H](C)[C@@H](O)[C@@H](C)[C@H](OC(C)=O)[C@@H]1C [rifapentine]

0.0891
0.125
